Recorded values, source patent US10800772B2.

System: HIV-IIIb (wildtype)
Assay: Antiviral assay in MT4 cells, HIV-IIIb wildtype
Assay type: cell-based, HIV-1
Conditions: Human immunodeficiency virus 1, IIIB, MT4, 120 h, read-out: WT EC50
pEC50: −log10 of the molar value.
Decide using pEC50: a value greater than or equal to 8 is Satisfied, a smaller one is Not satisfied.

compound="COCCN1CCC(c2nn(C)c3ccc(-c4nc5cc(C)c([C@H](OC(C)(C)C)C(=O)O)c(-c6ccc(Cl)cc6)c5s4)cc23)C1 (stereo partly drawn) [Compound 65]" cat=Satisfied
compound="Cc1cc2nc(-c3ccc4c(c3)c(C3CCN(CC5CCO5)CC3)nn4C)sc2c(-c2ccc(Cl)cc2)c1[C@H](OC(C)(C)C)C(=O)O (stereo partly drawn)" cat=Satisfied
compound=CC(=O)N1CC(N2CCC(c3nn(C4CC4)c4ccc(-c5nc6cc(C)c([C@H](OC(C)(C)C)C(=O)O)c(-c7ccc(Cl)cc7)c6s5)nc34)CC2)C1 cat=Satisfied
compound=[2H]C([2H])([2H])n1nc(C2CCN(C3COC3)CC2)c2nc(-c3nc4cc(C)c([C@H](OC(C)(C)C)C(=O)O)c(-c5ccc(Cl)cc5)c4s3)ccc21 cat=Satisfied
compound=Cc1cc2nc(-c3cnc4c(c3)c(C3CCN(C5COC5)CC3)nn4C)sc2c(-c2ccc(Cl)cc2)c1[C@H](OC(C)(C)C)C(=O)O cat=Satisfied
compound=Cc1cc2nc(-c3ccc4c(c3)c(N3CCNC3=O)nn4C)sc2c(-c2ccc(Cl)cc2)c1[C@H](OC(C)(C)C)C(=O)O cat="Not satisfied"
compound=Cc1cc2nc(-c3cnc4c(n3)c(C3CCN(C5COC5)CC3)nn4C)sc2c(-c2ccc(Cl)cc2)c1[C@H](OC(C)(C)C)C(=O)O cat=Satisfied
compound=Cc1cc2nc(-c3ccc4c(c3)c(C3CN(C(C)C)C3)nn4C)sc2c(-c2ccc(Cl)cc2)c1[C@H](OC1CC1)C(=O)O cat="Not satisfied"
compound=Cc1cc2nc(-c3ccc4c(c3)c(N3CCN(C)C(=O)C3)nn4C)sc2c(-c2ccc(Cl)cc2)c1[C@H](OC(C)(C)C)C(=O)O cat="Not satisfied"
compound=Cc1cc2nc(-c3ccc4c(n3)c(C3CCN(C5COC5)CC3)nn4C3CC3)sc2c(-c2ccc(Cl)cc2)c1[C@H](OC(C)(C)C)C(=O)O cat=Satisfied
compound=Cc1cc2nc(-c3ccc4c(c3)c(C3CCN(C5COC5)CC3)nn4CC(F)F)sc2c(-c2ccc(Cl)cc2)c1[C@H](OC(C)(C)C)C(=O)O cat="Not satisfied"
compound=COCCN1CC(c2nn(C)c3ccc(-c4nc5cc(C)c([C@H](OC(C)(C)C)C(=O)O)c(-c6ccc(Cl)cc6)c5s4)cc23)C1 cat=Satisfied

====

System: HIV-IIIb (wildtype)
Experiment: Antiviral assay in MT4 cells, HIV-IIIb wildtype
Assay type: cell-based, HIV-1
Details: Human immunodeficiency virus 1, IIIB, MT4, 120 h, read-out: WT EC50
Collected EC50 values appear next to each entry.
Observation type: EC50 (µM)

molecule="Cc1cc2nc(-c3cnc4c(c3)c(C3=CCN(C)CC3)cn4C)sc2c(-c2ccc(Cl)cc2)c1[C@H](OC(C)(C)C)C(=O)O [Compound 105]" test_value=0.035
molecule="Cc1cc2nc(-c3ccc4c(c3)c(C3CCN(C(=O)C5(C)CCCO5)CC3)nn4C)sc2c(-c2ccc(Cl)cc2)c1[C@H](OC(C)(C)C)C(=O)O (stereo partly drawn) [Compound 158]" test_value=0.011
molecule="Cc1cc2nc(-c3ccc4c(c3)c(N3CCCN(C)CC3)nn4C)sc2c(-c2ccc(Cl)cc2)c1[C@H](OC(C)(C)C)C(=O)O [Compound 132]" test_value=0.025
molecule="COC(=O)N1CC(N2CCC(c3nn(C(F)F)c4ccc(-c5nc6cc(C)c([C@H](OC(C)(C)C)C(=O)O)c(-c7ccc(Cl)cc7)c6s5)cc34)CC2)C1 [Compound 44]" test_value=0.03
molecule="Cc1cc2nc(-c3ccc4c(c3)c(N3CCN(CC5CC5)CC3)nn4C)sc2c(-c2ccc(Cl)cc2)c1[C@H](OC(C)(C)C)C(=O)O [Compound 100]" test_value=0.01
molecule="CCn1nc(C2CCN(C3CN(C(=O)OC)C3)CC2)c2nc(-c3nc4cc(C)c([C@H](OC(C)(C)C)C(=O)O)c(-c5ccc(Cl)cc5)c4s3)ccc21 [Compound 179]" test_value=0.003
molecule="CCn1nc(C2CCN([C@@H]3CCN(C(=O)OC)C3)CC2)c2cc(-c3nc4cc(C)c([C@H](OC(C)(C)C)C(=O)O)c(-c5ccc(Cl)cc5)c4s3)ccc21 [Compound 50]" test_value=0.004
molecule="CCn1nc(C2CCN([C@H]3CCN(C(=O)OC)C3)CC2)c2cc(-c3nc4cc(C)c([C@H](OC(C)(C)C)C(=O)O)c(-c5ccc(Cl)cc5)c4s3)ccc21 [Compound 49]" test_value=0.004
molecule="Cc1cc2nc(-c3ccc4c(c3)c(N3CCC3=O)nn4C)sc2c(-c2ccc(Cl)cc2)c1[C@H](OC(C)(C)C)C(=O)O [Compound 3]" test_value=0.043
molecule="Cc1cc2nc(-c3cnc4c(c3)c(N3CCN(C)CC3)cn4C)sc2c(-c2ccc(Cl)cc2)c1[C@H](OC(C)(C)C)C(=O)O [Compound 107]" test_value=0.023
molecule="CC(=O)N1CC(N2CCC(c3nn(C(F)F)c4ccc(-c5nc6cc(C)c([C@H](OC(C)(C)C)C(=O)O)c(-c7ccc(Cl)cc7)c6s5)cc34)CC2)C1 [Compound 43]" test_value=0.026
molecule="COC(=O)N1CC[C@@H]1CN1CCC(c2nn(C)c3ccc(-c4nc5cc(C)c([C@H](OC(C)(C)C)C(=O)O)c(-c6ccc(Cl)cc6)c5s4)cc23)CC1 [Compound 5]" test_value=0.003

====

System: HIV-IIIb IN T174I BT
Experiment: Antiviral assay in MT4 cells, HIV-IIIb IN T174I BT virus (from viral breakthrough)
Type: cell-based, HIV-1
Conditions: Human immunodeficiency virus 1, IIIB, MT4, 120 h, read-out: T174I BT EC50, MT4 cells, HIV-IIIb IN T174I BT (viral breakthrough), 5 days, CellTiter-Glo
pEC50: −log10 of the molar value.
Observation type: pEC50

smiles_data=CC(=O)N1CC[C@@H]1CN1CCC(c2nn(C)c3ccc(-c4nc5cc(C)c([C@H](OC(C)(C)C)C(=O)O)c(-c6ccc(Cl)cc6)c5s4)cc23)CC1 test_value=6.84
smiles_data=Cc1cc2nc(-c3cnc4c(c3)c(C3CCN(C)CC3)cn4C)sc2c(-c2ccc(Cl)cc2)c1[C@H](OC(C)(C)C)C(=O)O test_value=6.06
smiles_data=Cc1cc2nc(-c3ccc4c(c3)c(C3CCN(C5COC5)CC3)nn4CC(F)F)sc2c(-c2ccc(Cl)cc2)c1[C@H](OC(C)(C)C)C(=O)O test_value=5.24
smiles_data=Cc1cc2nc(-c3ccc4c(c3)c(C3CCN(C(C)C)CC3)nn4C)sc2c(-c2ccc(Cl)cc2)c1[C@H](OC(C)(C)C)C(=O)O test_value=6.03
smiles_data=Cc1cc2nc(-c3ccc4c(c3)c(C3CCN(C5CC5)CC3)nn4C)sc2c(-c2ccc(Cl)cc2)c1[C@H](OC(C)(C)C)C(=O)O test_value=6.53
smiles_data=COC(=O)N1CC[C@@H](N2CCC(c3nn(C)c4ccc(-c5nc6cc(C)c([C@H](OC(C)(C)C)C(=O)O)c(-c7ccc(Cl)cc7)c6s5)nc34)CC2)C1 test_value=7.27

====

Tested on: HIV-IIIb IN T174I BT
Assay: Antiviral assay in MT4 cells, HIV-IIIb IN T174I BT virus (from viral breakthrough)
Assay type: cell-based, HIV-1
Conditions: Human immunodeficiency virus 1, IIIB, MT4, 120 h, read-out: T174I BT EC50, MT4 cells, HIV-IIIb IN T174I BT (viral breakthrough), 5 days, CellTiter-Glo
Observation type: log10(EC50) (log10 of the value in nM)

smiles_data=Cc1cc2nc(-c3ccc4c(n3)c(N3CCN(C5CS(=O)(=O)C5)CC3)nn4C)sc2c(-c2ccc(Cl)cc2)c1[C@H](OC(C)(C)C)C(=O)O observation_type=log10(EC50) test_value=3.02
smiles_data=CC(=O)N1CC(N2CCC(c3cn(C)c4ncc(-c5nc6cc(C)c([C@H](OC(C)(C)C)C(=O)O)c(-c7ccc(Cl)cc7)c6s5)cc34)CC2)C1 observation_type=log10(EC50) test_value=2.41
smiles_data=CC(=O)N1CC(N2CCC(c3nn(C)c4ccc(-c5nc6cc(C)c([C@H](OC(C)(C)C)C(=O)O)c(-c7ccc(Cl)cc7)c6s5)nc34)CC2)C1 observation_type=log10(EC50) test_value=1.54
smiles_data=Cc1cc2nc(-c3ccc4c(c3)c(C3CN(C(=O)OC(C)(C)C)C3)nn4C)sc2c(-c2ccc(Cl)cc2)c1[C@H](OC(C)(C)C)C(=O)O observation_type=log10(EC50) test_value=3.95
smiles_data=COCCN1CCN(c2nn(C)c3ccc(-c4nc5cc(C)c([C@H](OC(C)(C)C)C(=O)O)c(-c6ccc(Cl)cc6)c5s4)cc23)CC1 observation_type=log10(EC50) test_value=2.46
smiles_data=Cc1cc2nc(-c3cnc4c(c3)c(N3CCN(C)CC3)cn4C)sc2c(-c2ccc(Cl)cc2)c1[C@H](OC(C)(C)C)C(=O)O observation_type=log10(EC50) test_value=3.05
